# Anion binding constant (Ka), H2PO4^− listing for each entry below
# Assay method text: Anion binding constants (Ka) by fluorescence quenching / UV-vis absorbance titration, dihydrogen phosphate
# Condition info: dichloromethane; 1 by fluorescence quenching, 10 by UV-vis absorbance titration at 341 nm; errors ± 10%, average of 2-4 trials
Readout: Anion binding constant (Ka), H2PO4^− (M⁻¹)

[[record]]
compound = "O=[N+]([O-])c1cc2nc(-c3ccc[nH]3)c(-c3ccc[nH]3)nc2cc1[N+](=O)[O-] [compound 3]"
value_operator = "="
numeric_result = 55

[[record]]
compound = "C[Si](C)(C)CCOCn1cccc1-c1nc2ccccc2nc1-c1ccc[nH]1 [compound 12]"
value_operator = "<"
numeric_result = 50

[[record]]
compound = "O=[N+]([O-])c1ccc2nc(-c3ccc[nH]3)c(-c3ccc[nH]3)nc2c1 [compound 7, 6-nitro-2,3-dipyrrylquinoxaline]"
value_operator = "="
numeric_result = 80

[[record]]
compound = "c1c[nH]c(-c2nc3ccccc3nc2-c2ccc[nH]2)c1 [compound 1, 2,3-dipyrrylquinoxaline]"
value_operator = "="
numeric_result = 60

[[record]]
compound = "COc1cc2nc(-c3ccc[nH]3)c(-c3ccc[nH]3)nc2cc1OC [compound 2]"
value_operator = "<"
numeric_result = 50

